assay: Central nervous system (CNS) penetration study in mice; assay type: in vivo; conditions: female, BALB/cCrSlc, mouse, ip, 30 mg/kg intraperitoneally, three hours later, cerebrum and plasma by LC-MS/MS, read-out: Brain-to-plasma concentration ratio (Kp value)
If the reported Kp at 3 h equals or exceeds 1, assign T. If not, assign F.

> print(dat)
                                    molecule  category
 1  CCCn1cc(C(=O)c2cnn(-c3cncc4c(F)cccc34)c2C(F)(F)F)c2cc(Cl)c(-n3nccn3)nc21         F
 2  CCCn1cc(C(=O)c2cnn(-c3cncc4c(F)cccc34)c2C(F)(F)F)c2cc(Cl)c(-c3ncccn3)nc21         F
 3  C[C@@H]1CC(C(=O)c2cn(CCCO)c3nc(-c4ncccn4)c(Cl)cc23)C[C@@H](C)N1c1ncc(F)cc1I (some centres unmarked)         T
 4  C[C@@H]1CC(C(=O)c2cn(C)c3nc(-n4nccn4)c(Cl)cc23)C[C@@H](C)N1c1ncc(F)cc1I (some centres unmarked)         T
 5  Cn1cc(C(=O)c2cnn(-c3cncc4c(F)cccc34)c2C(F)(F)F)c2cc(Cl)c(-c3ncccn3)nc21         F
 6  CC(=O)N1CC(n2cc(C(=O)C3C[C@@H](C)N(c4ncc(F)cc4I)[C@H](C)C3)c3cc(Cl)c(-n4nccn4)nc32)C1 (some centres unmarked)         F
 7  Cn1cc(C(=O)c2cnn(-c3cncc4c(F)cccc34)c2C(F)(F)F)c2cc(Cl)c(-n3nccn3)nc21         F
 8  C[C@@H]1CC(C(=O)c2cn(C3CC3)c3nc(-n4nccn4)c(Cl)cc23)C[C@@H](C)N1c1ncc(F)cc1I (some centres unmarked)         F
 9  CCn1cc(C(=O)C2C[C@@H](C)N(c3ncc(F)cc3I)[C@H](C)C2)c2cc(Cl)c(-c3ncccn3)nc21 (some centres unmarked)         F
10  Cn1cc(C(=O)c2cnn(-c3cccc4nnsc34)c2C(F)(F)F)c2cc(Cl)c(-n3nccn3)nc21         T
11  C[C@@H]1CC(C(=O)c2cn(C)c3nc(-c4ncccn4)c(Cl)cc23)C[C@@H](C)N1c1ncc(F)cc1I (some centres unmarked)         T
12  C[C@@H]1CC(C(=O)c2cn(C3COC3)c3nc(-n4nccn4)c(Cl)cc23)C[C@@H](C)N1c1ncc(F)cc1I (some centres unmarked)         T
13  C[C@@H]1CC(C(=O)c2cn(C3COC3)c3nc(-c4ncccn4)c(Cl)cc23)C[C@@H](C)N1c1ncc(F)cc1I (some centres unmarked)         T
